# System: plasma hemostasis
# TEST NAME: Partial activated thromboplastin time (PATT) after intravenous administration
# Type: in vivo, rabbit
# EXPERIMENTAL PARAMETERS: 15.0 mg/kg intravenously, after 30 minutes; control 37.0 ± 0.2
# Text: […]

{"ENTRY SMILES": "O=c1[nH][nH]c(=O)c2c(Br)ncnc12.[K]", "PATT, T [s]": 37.1}
{"ENTRY SMILES": "Nc1cccc2c(=O)[nH][nH]c(=O)c12.[Na]", "PATT, T [s]": 37.0}
{"ENTRY SMILES": "Nc1ccnc2c(=O)n([C@@H]3O[C@H](CO)[C@@H](O)[C@H]3O)[nH]c(=O)c12", "PATT, T [s]": 37.0}
{"ENTRY SMILES": "Nc1cnc2c(=O)n([C@@H]3O[C@H](CO)[C@@H](O)[C@H]3O)[nH]c(=O)c2n1.[Na]", "PATT, T [s]": 37.2}

---

# TEST NAME: Chronic toxicity of suppositories: indexes of peripheral blood
# Format: in vivo, rats
# EXPERIMENTAL PARAMETERS: male rats, suppositories rectally, 50 mg/kg, 2 months; control 11.4 ± 0.2
Examples of compounds with documented Hemoglobin follow.
RECORDED METRIC: Hemoglobin (mmol/L)

{"ENTRY SMILES": "Nc1cccc2c(=O)[nH][nH]c(=O)c12.[Na]", "REPORTED VALUE": 11.2}
{"ENTRY SMILES": "O=c1[nH][nH]c(=O)c2c(Br)ncnc12.[K]", "REPORTED VALUE": 11.0}
{"ENTRY SMILES": "O=C([O-])c1ncnc2c(=O)n([C@@H]3O[C@H](CO)[C@@H](O)[C@H]3O)[nH]c(=O)c12.[Na+]", "REPORTED VALUE": 11.1}
{"ENTRY SMILES": "O=c1[nH]n([C@@H]2O[C@H](CO)[C@@H](O)[C@H]2O)c(=O)c2nc(O)cnc12.[Na].[Na]", "REPORTED VALUE": 11.0}

---

# TEST NAME: Chronic toxicity of suppositories: indexes of peripheral blood
# Format: in vivo, rats
# EXPERIMENTAL PARAMETERS: male rats, suppositories rectally, 500 mg/kg, 2 months; control 11.4 ± 0.2
Listed compounds paired with reported Hemoglobin

{"COMPOUND": "O=c1[nH][nH]c(=O)c2c(Br)ncnc12.[K] [Compound 37]", "Hemoglobin / mmol/L": 12.1}
{"COMPOUND": "O=C([O-])c1ncnc2c(=O)n([C@@H]3O[C@H](CO)[C@@H](O)[C@H]3O)[nH]c(=O)c12.[Na+] [Compound 34]", "Hemoglobin / mmol/L": 12.4}
{"COMPOUND": "O=c1[nH]n([C@@H]2O[C@H](CO)[C@@H](O)[C@H]2O)c(=O)c2nc(O)cnc12.[Na].[Na] [Compound 23]", "Hemoglobin / mmol/L": 12.3}
{"COMPOUND": "Nc1cccc2c(=O)[nH][nH]c(=O)c12.[Na] [Compound 15]", "Hemoglobin / mmol/L": 12.5}

---

# System: plasma hemostasis
# TEST NAME: Autocoagulation test (coagulating activity A) after intravenous administration
# Assay type: in vivo, rabbit
# EXPERIMENTAL PARAMETERS: 15.0 mg/kg intravenously, after 120 minutes; control 85.6
RECORDED METRIC: coagulating activity A (autocoagulation test)

{"MOLECULE": "Nc1ccnc2c(=O)n([C@@H]3O[C@H](CO)[C@@H](O)[C@H]3O)[nH]c(=O)c12 [Compound 2]", "REPORTED VALUE": "98.0%"}
{"MOLECULE": "Nc1cccc2c(=O)[nH][nH]c(=O)c12.[Na] [Compound 15]", "REPORTED VALUE": "101.2%"}
{"MOLECULE": "Nc1cnc2c(=O)n([C@@H]3O[C@H](CO)[C@@H](O)[C@H]3O)[nH]c(=O)c2n1.[Na] [Compound 21]", "REPORTED VALUE": "97.4%"}
{"MOLECULE": "O=c1[nH][nH]c(=O)c2c(Br)ncnc12.[K] [Compound 37]", "REPORTED VALUE": "100.6%"}

---

# TEST NAME: Electrochemical activity: polarographic reduction on mercury dripping electrode
# Format: physicochemical
# EXPERIMENTAL PARAMETERS: pH 7.2; vs SCE, 37° C., forward trace; average for the group of compounds
Each item that follows carries a reported −E1/2.

{"MOLECULE": "Nc1ncc2c(=O)[nH][nH]c(=O)c2n1 [Compound 36]", "−E1/2": "0.085 ± 0.015 V"}
{"MOLECULE": "O=C([O-])c1ccc2c(=O)[nH][nH]c(=O)c2c1.O=C([O-])c1ccc2c(=O)[nH][nH]c(=O)c2c1.[Na+].[Na+] [Compound 18]", "−E1/2": "0.09 ± 0.01 V"}
{"MOLECULE": "COP(=O)(OC)C(C)(C)CC(C)=O [Dimesphosphon, reference compound]", "−E1/2": "0.17 ± 0.02 V"}
{"MOLECULE": "Nc1cccc2c(=O)n([C@@H]3O[C@H](CO)[C@@H](O)[C@H]3O)[nH]c(=O)c12.[Na] [Compound 10]", "−E1/2": "0.09 ± 0.01 V"}
{"MOLECULE": "O=c1[nH][nH]c(=O)c2ncccc12.[Na] [Compound 7]", "−E1/2": "0.11 ± 0.03 V"}
{"MOLECULE": "O=c1[nH]n([C@@H]2O[C@H](CO)[C@@H](O)[C@H]2O)c(=O)c2ncnc(O)c12.[Na] [Compound 33]", "−E1/2": "0.085 ± 0.015 V"}
{"MOLECULE": "Nc1cccc2c(=O)[nH][nH]c(=O)c12.[Na] [Compound 15]", "−E1/2": "0.09 ± 0.01 V"}
{"MOLECULE": "O=c1[nH]n([C@@H]2O[C@H](CO)[C@@H](O)[C@H]2O)c(=O)c2nc(O)cnc12.[Na].[Na] [Compound 23]", "−E1/2": "0.19 ± 0.02 V"}
{"MOLECULE": "O=c1[nH]n([C@@H]2O[C@H](CO)[C@@H](O)[C@H]2O)c(=O)c2ncccc12.[Na] [Compound 1]", "−E1/2": "0.11 ± 0.03 V"}
{"MOLECULE": "O=c1[nH][nH]c(=O)c2nccnc12.[Li] [Compound 25]", "−E1/2": "0.19 ± 0.02 V"}
{"MOLECULE": "O=c1[nH][nH]c(=O)c2ncncc12.[Li] [Compound 35]", "−E1/2": "0.085 ± 0.015 V"}

---

# Tested on: plasma hemostasis
# TEST NAME: Autocoagulation test (coagulating activity A) after intravenous administration
# Type: in vivo, rabbit
# EXPERIMENTAL PARAMETERS: 60.0 mg/kg intravenously, after 60 minutes; control 65.9
RECORDED METRIC: coagulating activity A (autocoagulation test) (%)

{"COMPOUND": "Nc1cnc2c(=O)n([C@@H]3O[C@H](CO)[C@@H](O)[C@H]3O)[nH]c(=O)c2n1.[Na] [Compound 21]", "TESTED ON": "plasma hemostasis", "REPORTED VALUE": 63.7}
{"COMPOUND": "Nc1cccc2c(=O)[nH][nH]c(=O)c12.[Na] [Compound 15]", "TESTED ON": "plasma hemostasis", "REPORTED VALUE": 64.4}
{"COMPOUND": "O=c1[nH][nH]c(=O)c2c(Br)ncnc12.[K] [Compound 37]", "TESTED ON": "plasma hemostasis", "REPORTED VALUE": 64.2}
{"COMPOUND": "Nc1ccnc2c(=O)n([C@@H]3O[C@H](CO)[C@@H](O)[C@H]3O)[nH]c(=O)c12 [Compound 2]", "TESTED ON": "plasma hemostasis", "REPORTED VALUE": 62.5}

---

List of REE values.
# TEST NAME: Chronic toxicity of suppositories: indexes of peripheral blood
# Assay type: in vivo, rats
# EXPERIMENTAL PARAMETERS: male rats, suppositories rectally, 500 mg/kg, 2 months; control 1.4 ± 0.2

{"COMPOUND": "Nc1cccc2c(=O)[nH][nH]c(=O)c12.[Na] [Compound 15]", "REE": "1.8 ± 0.4 mm/h"}
{"COMPOUND": "O=c1[nH]n([C@@H]2O[C@H](CO)[C@@H](O)[C@H]2O)c(=O)c2nc(O)cnc12.[Na].[Na] [Compound 23]", "REE": "1.7 ± 0.3 mm/h"}
{"COMPOUND": "O=c1[nH][nH]c(=O)c2c(Br)ncnc12.[K] [Compound 37]", "REE": "2.0 ± 0.1 mm/h"}
{"COMPOUND": "O=C([O-])c1ncnc2c(=O)n([C@@H]3O[C@H](CO)[C@@H](O)[C@H]3O)[nH]c(=O)c12.[Na+] [Compound 34]", "REE": "1.8 ± 0.2 mm/h"}
